Target: PI3K p110β (Homo sapiens, UniProt P42338)
Sequence (P42338 whole entry, canonical isoform): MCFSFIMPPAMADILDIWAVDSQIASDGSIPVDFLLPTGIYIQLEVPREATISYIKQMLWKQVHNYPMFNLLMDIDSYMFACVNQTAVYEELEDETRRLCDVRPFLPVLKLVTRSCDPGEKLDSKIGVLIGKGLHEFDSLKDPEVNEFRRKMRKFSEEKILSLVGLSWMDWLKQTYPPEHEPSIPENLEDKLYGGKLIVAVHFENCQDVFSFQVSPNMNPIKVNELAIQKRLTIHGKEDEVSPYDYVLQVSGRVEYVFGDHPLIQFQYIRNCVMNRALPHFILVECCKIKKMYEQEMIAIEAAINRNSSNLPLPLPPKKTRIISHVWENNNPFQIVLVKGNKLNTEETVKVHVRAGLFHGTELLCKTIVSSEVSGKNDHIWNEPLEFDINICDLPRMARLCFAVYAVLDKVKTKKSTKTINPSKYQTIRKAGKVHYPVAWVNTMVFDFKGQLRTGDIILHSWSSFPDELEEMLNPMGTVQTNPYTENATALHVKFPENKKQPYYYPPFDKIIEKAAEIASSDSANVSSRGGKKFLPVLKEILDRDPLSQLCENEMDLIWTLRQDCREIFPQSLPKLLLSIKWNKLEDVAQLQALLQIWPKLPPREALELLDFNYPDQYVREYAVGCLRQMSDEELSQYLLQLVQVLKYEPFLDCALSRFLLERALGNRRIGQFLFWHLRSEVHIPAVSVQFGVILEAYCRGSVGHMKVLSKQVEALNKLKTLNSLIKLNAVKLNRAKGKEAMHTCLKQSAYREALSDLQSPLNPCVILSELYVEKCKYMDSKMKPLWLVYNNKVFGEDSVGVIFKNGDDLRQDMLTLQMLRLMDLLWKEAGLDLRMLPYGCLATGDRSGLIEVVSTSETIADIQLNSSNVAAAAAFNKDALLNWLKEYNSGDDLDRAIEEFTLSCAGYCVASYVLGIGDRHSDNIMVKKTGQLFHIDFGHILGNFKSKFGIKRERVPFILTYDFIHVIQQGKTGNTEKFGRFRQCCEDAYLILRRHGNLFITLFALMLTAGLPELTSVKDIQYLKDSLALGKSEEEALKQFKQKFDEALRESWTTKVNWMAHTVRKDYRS
Sequence (P27986 whole entry partner, canonical isoform): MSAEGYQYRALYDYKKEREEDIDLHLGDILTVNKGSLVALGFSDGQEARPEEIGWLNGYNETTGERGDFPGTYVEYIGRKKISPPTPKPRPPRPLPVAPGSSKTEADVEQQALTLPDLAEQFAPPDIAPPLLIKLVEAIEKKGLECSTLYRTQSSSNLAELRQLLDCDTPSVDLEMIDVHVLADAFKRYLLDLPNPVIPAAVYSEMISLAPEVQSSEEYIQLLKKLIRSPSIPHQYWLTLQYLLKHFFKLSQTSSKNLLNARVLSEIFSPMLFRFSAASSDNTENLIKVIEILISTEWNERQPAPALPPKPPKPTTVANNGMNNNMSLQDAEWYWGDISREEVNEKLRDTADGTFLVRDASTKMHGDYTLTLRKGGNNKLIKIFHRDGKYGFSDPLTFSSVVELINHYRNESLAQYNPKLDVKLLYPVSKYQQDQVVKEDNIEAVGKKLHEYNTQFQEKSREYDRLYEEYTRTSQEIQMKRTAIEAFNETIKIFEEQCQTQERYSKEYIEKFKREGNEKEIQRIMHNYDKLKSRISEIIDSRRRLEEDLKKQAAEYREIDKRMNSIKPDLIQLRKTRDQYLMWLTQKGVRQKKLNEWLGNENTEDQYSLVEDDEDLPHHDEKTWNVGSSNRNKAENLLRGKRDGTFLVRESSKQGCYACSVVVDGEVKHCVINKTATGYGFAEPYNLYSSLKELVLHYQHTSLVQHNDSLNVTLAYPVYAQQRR
Experiment: PI3K isoform inhibition in vitro, p110β
Conditions: class I PI3K isoform β
pIC50: −log10 of the molar value.
Measurement kind: pIC50

INPUT: Consider the compound `Cc1ccccc1-c1nc2ncccc2cc1Cn1cnc2c(N)ncnc21` and give its measured pIC50.
OUTPUT: < 4.00

---

Biological target: PI3K p110α (Homo sapiens)
Sequence (P42336 whole entry, canonical isoform): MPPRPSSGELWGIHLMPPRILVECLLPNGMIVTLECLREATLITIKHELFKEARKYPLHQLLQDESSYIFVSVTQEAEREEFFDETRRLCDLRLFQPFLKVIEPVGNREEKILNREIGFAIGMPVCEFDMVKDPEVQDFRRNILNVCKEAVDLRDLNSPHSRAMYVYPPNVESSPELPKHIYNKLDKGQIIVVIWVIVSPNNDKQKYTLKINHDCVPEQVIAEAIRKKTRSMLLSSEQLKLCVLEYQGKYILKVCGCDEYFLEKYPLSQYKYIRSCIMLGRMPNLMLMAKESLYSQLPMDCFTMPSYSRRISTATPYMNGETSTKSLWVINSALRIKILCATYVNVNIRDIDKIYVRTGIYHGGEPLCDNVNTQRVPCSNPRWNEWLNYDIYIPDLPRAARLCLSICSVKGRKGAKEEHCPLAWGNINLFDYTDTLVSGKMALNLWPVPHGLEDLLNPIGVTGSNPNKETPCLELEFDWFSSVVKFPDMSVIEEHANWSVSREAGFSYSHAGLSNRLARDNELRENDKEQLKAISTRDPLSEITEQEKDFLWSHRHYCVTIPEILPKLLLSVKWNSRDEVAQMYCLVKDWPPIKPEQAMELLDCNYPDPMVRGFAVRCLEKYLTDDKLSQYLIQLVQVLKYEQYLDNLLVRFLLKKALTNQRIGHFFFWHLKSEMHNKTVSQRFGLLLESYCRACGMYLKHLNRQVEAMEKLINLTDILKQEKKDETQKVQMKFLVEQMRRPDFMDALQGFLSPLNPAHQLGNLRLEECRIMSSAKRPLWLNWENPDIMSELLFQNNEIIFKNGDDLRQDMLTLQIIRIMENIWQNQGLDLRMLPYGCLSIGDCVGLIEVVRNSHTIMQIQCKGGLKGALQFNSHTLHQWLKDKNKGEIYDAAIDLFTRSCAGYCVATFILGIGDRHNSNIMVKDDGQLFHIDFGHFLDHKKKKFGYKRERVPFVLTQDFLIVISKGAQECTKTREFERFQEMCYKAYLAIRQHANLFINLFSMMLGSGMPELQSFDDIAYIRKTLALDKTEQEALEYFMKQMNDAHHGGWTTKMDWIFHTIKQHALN
Sequence (P27986 whole entry partner, canonical isoform): as the sequence (P27986 whole entry partner, canonical isoform) above
Assay: PI3K isoform inhibition in vitro, p110α
Details: class I PI3K isoform α
Measurement kind: IC50

INPUT: If you can, please state the reported IC50 value of `Cc1ccccc1-c1nc2ncccc2cc1Cn1cnc2c(N)ncnc21` .
OUTPUT: > 100 µM

---

Biological target: PI3K p110δ (Homo sapiens)
Sequence (O00329 whole entry, one chain of several, canonical isoform): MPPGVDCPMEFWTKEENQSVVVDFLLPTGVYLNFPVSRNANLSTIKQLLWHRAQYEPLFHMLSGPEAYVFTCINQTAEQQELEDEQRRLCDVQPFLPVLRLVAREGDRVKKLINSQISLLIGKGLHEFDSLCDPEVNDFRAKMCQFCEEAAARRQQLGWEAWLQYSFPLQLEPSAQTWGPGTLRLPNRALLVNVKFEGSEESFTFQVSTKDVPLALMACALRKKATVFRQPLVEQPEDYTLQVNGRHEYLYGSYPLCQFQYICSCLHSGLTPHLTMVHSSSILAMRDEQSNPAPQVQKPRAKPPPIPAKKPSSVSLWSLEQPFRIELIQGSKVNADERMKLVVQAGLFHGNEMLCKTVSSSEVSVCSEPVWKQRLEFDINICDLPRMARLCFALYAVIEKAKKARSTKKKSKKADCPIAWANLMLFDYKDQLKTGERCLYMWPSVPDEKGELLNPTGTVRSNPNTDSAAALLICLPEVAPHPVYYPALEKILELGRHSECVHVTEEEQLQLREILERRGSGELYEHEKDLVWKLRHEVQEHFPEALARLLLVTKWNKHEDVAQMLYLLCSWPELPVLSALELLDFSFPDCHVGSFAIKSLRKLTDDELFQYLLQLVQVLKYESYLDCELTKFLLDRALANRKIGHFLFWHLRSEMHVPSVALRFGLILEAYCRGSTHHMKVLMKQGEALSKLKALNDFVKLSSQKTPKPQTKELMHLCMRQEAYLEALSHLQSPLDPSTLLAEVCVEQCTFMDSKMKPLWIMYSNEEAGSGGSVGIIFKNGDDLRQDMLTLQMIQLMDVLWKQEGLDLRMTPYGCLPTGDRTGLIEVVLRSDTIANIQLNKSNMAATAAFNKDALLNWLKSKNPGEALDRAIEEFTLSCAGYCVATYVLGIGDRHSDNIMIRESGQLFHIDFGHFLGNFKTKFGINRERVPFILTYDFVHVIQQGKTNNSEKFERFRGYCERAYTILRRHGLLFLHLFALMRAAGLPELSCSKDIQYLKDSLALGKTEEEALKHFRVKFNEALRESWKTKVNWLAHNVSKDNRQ
Experiment: PI3K isoform inhibition in vitro, p110δ
Settings: class I PI3K isoform δ
Measurement kind: IC50 (nM)
Give just the numeric value; nM need not be written.

INPUT: # query: IC50 | item Cc1ccccc1-c1nc2ncccc2cc1Cn1cnc2c(N)ncnc21 [compound 7b] | system: PI3K p110δ (Homo sapiens)
OUTPUT: 1300

Just for reference, patent US20150011569A1 is where these values come from.
